Experiment: Solubility of HPPA-Me
Type: physicochemical
Settings: aqueous solution, pH 6.5; read-out: solubility
MEASURED QUANTITY: solubility

Prompt: Find the measured solubility of COC(=O)C(C)Oc1ccc(O)cc1 (racemic) and report it.
Response: < 25 mM

---

Tested on: CSC-2
Assay: Effect of additives and solvents on hydrolysis of ketoprofen monoglyceride by CSC-2
Assay type: biochemical, Candida rugosa
Conditions: solvent/buffer 1:1 two phase, 26 hours; buffer = 100
So basically, if Relative Rate comes in under 50 it's criterion met, and if it's 50 or more it's criterion not met.

Prompt: Hello, is Relative Rate of the following compound strictly smaller than 50? ClC(Cl)(Cl)Cl [carbon tetrachloride]
Response: criterion met

Prompt: Hello, is Relative Rate of the following compound strictly smaller than 50? ClC(Cl)=C(Cl)Cl
Response: criterion met

Prompt: Hello, is Relative Rate of the following compound strictly smaller than 50? CC(Cl)(Cl)Cl
Response: criterion met

Prompt: Hello, is Relative Rate of the following compound strictly smaller than 50? CC(C)OC(C)C
Response: criterion not met

Prompt: Hello, is Relative Rate of the following compound strictly smaller than 50? CCc1ccccc1
Response: criterion met

Prompt: Hello, is Relative Rate of the following compound strictly smaller than 50? CC(C)c1ccccc1
Response: criterion not met

Prompt: Hello, is Relative Rate of the following compound strictly smaller than 50? c1ccc2c(c1)CCCC2 [1,2,3,4-Tetrahydronapthalene]
Response: criterion not met

Prompt: Hello, is Relative Rate of the following compound strictly smaller than 50? CC(C)CC(C)(C)C
Response: criterion not met

Prompt: Hello, is Relative Rate of the following compound strictly smaller than 50? C1CCCCC1
Response: criterion not met

Prompt: Hello, is Relative Rate of the following compound strictly smaller than 50? C1=CCCCC1
Response: criterion not met

Prompt: Hello, is Relative Rate of the following compound strictly smaller than 50? C1=CCCCCCC1
Response: criterion not met

Prompt: Hello, is Relative Rate of the following compound strictly smaller than 50? Cc1ccccc1
Response: criterion met

---

Assign % R to each entry below.
System: Lipase MY
Test: Two phase Lipase MY hydrolysis of HPPA-Me in organic solvent/water mixtures
Type: biochemical, Candida rugosa
Conditions: solvent 25%, 2.7 hr
// note: answer is a bare numeric in %

Prompt: Give % R for this entry on Lipase MY: CC(C)c1ccccc1
Response: 100

Prompt: Give % R for this entry on Lipase MY: Cc1ccccc1
Response: 100

Prompt: Give % R for this entry on Lipase MY: ClC(Cl)(Cl)Cl [carbon tetrachloride]
Response: 79

Prompt: Give % R for this entry on Lipase MY: C1CCCCC1
Response: 100

---

Test system: CSC-2
Test: Effect of additives and solvents on hydrolysis of ketoprofen monoglyceride by CSC-2
Format: biochemical, Candida rugosa
Conditions: as E158
MEASURED QUANTITY: Rate
Just the number, please, no unit attached.

Prompt: Find the measured Rate of CCCCCCCC/C=C\CCCCCCCC(=O)OCC and report it.
Response: 4

Prompt: Find the measured Rate of CCCCCCCC/C=C\CCCCCCCC(=O)OCC(COC(=O)CCCCCCC/C=C\CCCCCCCC)OC(=O)CCCCCCC/C=C\CCCCCCCC and report it.
Response: 3

Prompt: Find the measured Rate of CCCCCCCC/C=C\CCCCCCCC(=O)OC and report it.
Response: 3

Prompt: Find the measured Rate of CCCCCCCC/C=C\CCCCCCCC(=O)OCC(O)CO (centres unmarked) and report it.
Response: 4

Prompt: Find the measured Rate of CCCCCCCC/C=C\CCCCCCCC(=O)O and report it.
Response: 3
